B1: ZBTB22 (parent)
chain: RPFDCPVCNKKFKMKHHLTEHMKT

- Variants of: B1
- Assay Text: protein stability index of a GFP-peptide fusion (GPS, HEK-293T) (PSI 1-6); higher = more stable;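 note: lentivirally expressed fusions sorted by FACS into six bins by GFP to DsRed ratio, PSI derived from sequencing read proportions per bin multiplied by bin number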
- Study Conditions: c terminus: a fixed tail appended
Below: a set of entries, each annotated with reported protein stability index.
Write no unit; give the number alone.

Below are worked cases with known answers.
RPFDCPVCNKKFKMKHHLVEHMKT : 3
RPFDCPVCNKKFKMKHHLTEHMLT : 2.38
REFDCPVCNKKFKMKHHLTEHMKT : 3.26

Task: If you can, please state the reported protein stability index value of RPIDCPVCNKKFKMKHHLTEHMKT .
Result: 2.55

Task: One more variant: RPFDCPVCNKKFKMKHRLTEHMKT
Result: 2.18

Task: One more variant: RPFDCPVCNKKFKMKHHLTEQMKT
Result: 2.34

Task: One more variant: RPFDCPVCNKKFMMKHHLTEHMKT
Result: 2.27

Task: One more variant: RPFDCPVCNKKFKMKHHLTEYMKT
Result: 2.2
